As shown below, each of these compounds has a reported %Inh value.
# System: WNK1
# Conditions: concentration: 1 μM, replicates: in singlicate; n = 1;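 further: KINOMEscan kinase panel screen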
# value in %; strip the unit string

Example results:
[[record]]
compound = "Fc1cccc(COc2ccc(Nc3ncnc4sc(-c5ccc[nH]5)cc34)cc2Cl)c1"
assayed_target = "WNK1"
result_value = 12

[[record]]
compound = "C[C@H]1CC[C@@H](C(=O)Nc2ccccc2)CN1c1cc(-c2ccc3c(N)n[nH]c3c2)nc(N)n1"
assayed_target = "WNK1"
result_value = 2

[[record]]
compound = "CCCc1ccc(S(=O)(=O)NC2CCN(c3ccnc(Nc4ccc(OC)cc4)n3)C2)cc1 (stereo not drawn)"
assayed_target = "WNK1"
result_value = 8

[[record]]
compound = "Cl.c1ccc(Cn2ccc3cc(Nc4ncnc5ccccc45)ccc32)cc1"
assayed_target = "WNK1"
result_value = 5

[[record]]
compound = "FC(F)(F)c1cc(Nc2nccc(-c3c(-c4ccc(Cl)cc4)nn4ncccc34)n2)ccc1Cl"
assayed_target = "WNK1"
result_value = 0


Provide one value: measured %Inh of CS(=O)(=O)CCNCc1nc(-c2ccc3ncnc(Nc4ccc(OCc5cccc(F)c5)c(Cl)c4)c3c2)cs1.Cl
4

Provide one value: measured %Inh of CSc1nn2c(=O)cc(N3CCOCC3)nc2n1Cc1cccc(Cl)c1Cl
11

Provide one value: measured %Inh of COc1cc2c(Nc3cccc(NC(=O)c4ccccc4)c3)ncnc2cc1OCCCN1CCOCC1
4

Provide one value: measured %Inh of O=C(c1ccc(-c2cc(-c3c[nH]nc3-c3ccccn3)ccn2)cc1)N1CCCC1
0

Provide one value: measured %Inh of Cl.Cn1ccc(-c2cccc(Nc3ccnc4cc(-c5nccs5)ccc34)c2)n1
17

Provide one value: measured %Inh of Fc1cccc(COc2ccc(Nc3ncnc4nn5ccccc5c34)cc2Cl)c1
0

Provide one value: measured %Inh of Nc1nccc2scc(-c3ccc4c(c3)CCN4C(=O)Cc3cc(F)ccc3F)c12
33

---

As shown below, each of these compounds has a reported %Inh value.
# Test system: p38-delta
# Conditions: concentration: 1 μM, replicates: in singlicate; n = 1
# value in %; strip the unit string

[[record]]
compound = "O=C(c1ccc(-c2cc(-c3c[nH]nc3-c3ccccn3)ccn2)cc1)N1CCCC1 [GW792479]"
property_measured = "%Inh"
result_value = 0


Provide one value: measured %Inh of Nc1nc(-c2ccc3c(N)n[nH]c3c2)cc(N2CCC[C@@H](C(=O)Nc3ccccc3)C2)n1.O=C(O)C(F)(F)F.O=C(O)C(F)(F)F [GSK2288359]
18

Provide one value: measured %Inh of CNc1nccc(-c2c(-c3ccc(F)cc3)ncn2C2CCN(C)CC2)n1 [SB-222903]
9

Provide one value: measured %Inh of Fc1cccc(COc2ccc(Nc3ncnc4sc(-c5ccc[nH]5)cc34)cc2Cl)c1 [GW707818]
46

Provide one value: measured %Inh of Cc1cc(N2CCC(NS(=O)(=O)c3ccc(F)cc3)CC2)nc(Nc2cccc(C#N)c2)n1.O=C(O)C(F)(F)F [GSK1653537]
8

---

As shown below, each of these compounds has a reported %Inh value.
# System: INSR
# Conditions: concentration: 1 μM, replicates: in singlicate; n = 1

Example results:
[[record]]
compound = "CSc1ccc(NC2=C(c3ccccc3Cl)C(=O)NC2=O)cc1"
result_value = "0%"

[[record]]
compound = "Fc1cccc(COc2ccc(Nc3ncnc4cc[nH]c34)cc2Cl)c1"
result_value = "0%"

[[record]]
compound = "CNc1nccc(-c2c(-c3ccc(F)cc3)ncn2CCCN2CCOCC2)n1"
result_value = "0%"


Provide one value: measured %Inh of c1ccc(-c2ccc3c(-c4ccnc(Nc5ccc6c(c5)OCCO6)n4)cnn3n2)cc1
3%

Provide one value: measured %Inh of Fc1ccc(-c2ncn(CCCNCc3ccccc3)c2-c2ccncc2)cc1
0%

Provide one value: measured %Inh of Cl.O=S(=O)(c1cccc(F)c1)c1ccc(Nc2ncnc3cc(Br)sc23)cc1Cl
13%

Provide one value: measured %Inh of FC(F)(F)c1cc(Nc2nccc(-c3c(-c4ccc(Cl)cc4)nn4ncccc34)n2)ccc1Cl
0%

Provide one value: measured %Inh of CC(C)(C)OC(=O)NC1CCCN(c2cc(-c3ccc4c(N)n[nH]c4c3)nc(N)n2)C1 (stereo not drawn)
0%

Provide one value: measured %Inh of COc1ccc(NC(=O)Nc2ccc(C)c(-c3ccc(C(=O)Nc4ccncc4)cc3)c2)cc1
30%
